- Tested on: L1210 leukemia ip in BDF1 mice, survival T/C
- Assay comment: NCI In Vivo Anticancer Drug Screen. Data for tumor model L1210 Leukemia (intraperitoneal) in B6D2F1 (BDF1) mice
- Condition info: endpoint: mean survival time; dose: 200.0 mg/kg/injection; schedule: Q01DX009 (ip); vehicle: Klucel (hydroxypropylcellulose) (HPC); higher = longer survival
Toxic doses and inconclusive results are not listed.
Experimental endpoint: T/C

Which value of T/C has been reported for CCc1ccc(NS(=O)(=O)c2ccccc2[N+](=O)[O-])cc1 in the records?
105 % of control

Which value of T/C has been reported for CN(C)c1ncnc(N)n1 in the records?
88 % of control

Which value of T/C has been reported for CC(C)OC(=O)Oc1c(Cl)c(Cl)c(Cl)c(Cl)c1Cl in the records?
98 % of control

Kindly consider the entry below.
Which value of T/C has been reported for O=C(Cc1cccc2ccccc12)N/N=C/c1cccc([N+](=O)[O-])c1 in the records?
93 % of control

Source of measurements: PubChem BioAssay AID248
